biological target: MAGI2_3, Q86UL8; experiment: holdup assay; set-up: key: below the threshold = too weak to quantify, mostly under pKd 3.1 to 4; conditions: plain residues with an end cap or a label only (N-terminal biotin on a linker: ttds)
Sequence (Q86UL8 600-682): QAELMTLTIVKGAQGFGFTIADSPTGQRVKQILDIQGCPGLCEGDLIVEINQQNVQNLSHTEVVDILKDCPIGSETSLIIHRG
recorded_metric: pKd

1) DLDEEEDTHL [PODXL, O00592]; below the threshold
2) SSIDLWETAL [SLC15A5, A6NIM6]; below the threshold
3) GRLLGLETNV [ARHGEF26, Q96DR7]; 3.9
4) GARVSKETPL [MAPK12, P53778]; below the threshold
5) PSRDRKETSI [RALBP1, Q15311]; below the threshold
6) SGGKRKETLV [NET1, Q7Z628]; 4.5
7) NPDALPETLV [ARHGAP6, O43182]; 3.89
8) SHSSKGETAV [FZD7, O75084]; 3.49
9) FVETQHQTQV [FAT3, Q8TDW7]; 3.63
10) KLVIKTETTV [RASSF6, Q6ZTQ3]; 3.73
11) PFRSRSPSEV [GPR6, P46095]; below the threshold
12) PPRQRSETQV [HPV82-E6, Q9IR59]; 3.73
13) QRPYRRESEI [KCNJ12, Q14500]; below the threshold
14) KQVVPFSSSV [GDA, Q9Y2T3]; below the threshold
15) SRSRRRETAL [HPV33-E6, P06427]; below the threshold
